Target: Rvs167, P39743
Sequence (P39743 419-482): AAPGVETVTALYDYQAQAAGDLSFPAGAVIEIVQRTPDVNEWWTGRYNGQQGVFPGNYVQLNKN
Test: SPOT array
Settings: median of control spots 2707
REPORTED ENDPOINT: SPOT intensity

BINDER | SPOT intensity
TPEIPPPLPPKIMVH | 0
PPLPRAPPVPPATFE | 0
NVLRKILEIPLHSFS | 0
FYNRTAFQLPGDARV | 0
PPIPIVPSSPAPPLP | 0
KRNRLKILLPFLEQS | 0
QPQRTAPKPPISAPR | 0

All values here come from paper PMC2756588.
